test_details: phospholipid biosynthesis inhibitors in animal cells, primary screen, cell-based, LOPAC library, screen 4 (AID 1347384)
condition_notes: phospholipid biosynthesis inhibition screen, at 10 µM
Activity calls are given as the source filed them. How the calls were made is not given here.
Outcomes: T for active, F for inactive

compound	label_value
N#CCCN	F
N#Cc1ccc(N2CCN(C(=O)COc3ccc4[nH]cc(CCN)c4c3)CC2)cc1	F
NCC1(CC(=O)O)CCCCC1	F
CCC1(C2=NCCN2)Cc2ccccc2O1 (centres undefined)	F
NCCc1ccc(S(=O)(=O)F)cc1	F
Cc1o[nH]c(=O)c1CC(N)C(=O)O (centres undefined)	F
C[C@@H]1O[C@H](C[N+](C)(C)C)C[C@H]1O	F
CC[C@@H](C(N)=O)N1CCCC1=O	F
CCCN1CCc2cccc3c2[C@H]1Cc1ccc(O)c(O)c1-3	F
CC(C)(C)c1cc(C=C(C#N)C#N)cc(C(C)(C)C)c1O	T
NN=C(N)N	F
CC(C)(C)c1o[nH]c(=O)c1CC(N)C(=O)O (centres undefined)	F
NCc1cc(=O)[nH]o1	F
COC(=O)C1=CCCN(C)C1	F
O=C(Cc1ccc(Cl)c(Cl)c1)N1CCCCC1CN1CCCC1 (centres undefined)	F
CC(=O)OCC1=C(C(=O)O)N2C(=O)[C@@H](NC(=O)CCC[C@@H](N)C(=O)O)[C@H]2SC1	F
COc1ccc2[nH]cc(CCN)c2c1	F
C[N+](C)(C)CCOC(=O)CBr	F
COc1ccc2[nH]c3c(c2c1)CCNC3	F

* * *

test_details: HepG2 cytotoxicity, primary screen, cytotoxicity control for P. falciparum antimalarial project, cell-based, ATP luminescence (AID 2303);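 further: 0% = DMSO wells and 100% = digitonin-killed cells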
condition_notes: HepG2 viability, 24-48 h, at 10 µM, stronger effect = higher value
Classify by inhibition. Ranges: low end = under 10%, middle = from 10% up to 40%, high end = 40% and over

compound	label_value
O=C(/C=C/c1ccc(Cl)c(Cl)c1)N1CCC(CN2CCC(c3c(-c4ccccc4)[nH]c4ccccc34)CC2)CC1	high end
CC(Cc1ccc(OCCCCOc2ccccc2)cc1)NCCCN1CCOCC1 (stereo not drawn)	high end
CCCCCCC(CC)c1cc(O)c2c(c1)OC(C)(C)c1ccncc1-2 (stereo not drawn)	low end
CC(Cc1ccc(OCc2ccccc2)cc1)NCC(O)c1cccc(Cl)c1 (stereo not drawn)	high end
O=C1COc2ccccc2N1CCN1CCC(NCc2ccc(-c3cccs3)cc2)CC1	middle
S=C(NCC1CCCCC1)NC1CCC(CN2CCC(c3c[nH]c4ccccc34)CC2)CC1 (stereo not drawn)	middle
CC(=O)C1(c2ccccc2)CCN(CCC2(c3ccc(Cl)c(Cl)c3)CN(C(=O)C3CCCC3)CCO2)CC1 (stereo not drawn)	middle
O=C(/C=C/c1ccc(O)cc1)NC1CCC(CN2CCC(c3c[nH]c4ccccc34)CC2)CC1 (stereo not drawn)	middle
O=C(c1cc(C(=O)NCc2ccc(Cl)cc2)c(=O)n(Cc2ccc(Cl)cc2)c1)c1cc(Cl)ccc1O	low end
Cc1[nH]c2cc(F)ccc2c1C1=CCN(CCCCC2(C)C(=O)Nc3ccccc32)CC1 (stereo not drawn)	middle
CCN1CCC(N2CCC(n3c(C)nc4cc(C(F)(F)F)ccc43)CC2)CC1	low end

* * *

test_details: inhibition of endothelial tube formation, primary screen, imaging, VEGF stimulated, CD31 staining, tube area, NPC library (AID 1117340)
condition_notes: VEGF-stimulated ADSC/ECFC co-culture, at 10 µM, stronger effect = higher value
readout_name: tube area decrease (%)

compound	readout_name	numeric_value
CC(O)CN1CCN(CC(=O)[O-])CCN(CC(=O)[O-])CCN(CC(=O)[O-])CC1.[Gd+3] (stereo not given)	tube area decrease	9.4
CCN(CC)Cc1nccn1-c1ccc([N+](=O)[O-])cc1C(=O)c1ccccc1Cl	tube area decrease	2.7
Cc1c(Cl)c(=O)oc2cc(OP(=O)(OCCCl)OCCCl)ccc12	tube area decrease	14.4
C[C@]12CC[C@@H]3c4ccc(OC(=O)N(CCCl)CCCl)cc4CC[C@H]3[C@@H]1CC[C@@H]2O	tube area decrease	2.8
CCC(=O)O[C@@H]1C=C2CCC3C(CCC4(C)C3CC[C@@H]4OC(=O)CC)C2CC1 (stereo not given in full)	tube area decrease	-11.8
C[N+]1(CCF)[C@@H]2CC[C@H]1CC(OC(=O)C(O)(c1ccccc1)c1ccccc1)C2 (stereo not given in full)	tube area decrease	16.4
CCOc1cc(C=O)ccc1O	tube area decrease	0.8
C=C1CC[C@@]2(O)[C@H]3Cc4ccc(O)c5c4[C@@]2(CCN3CC2CC2)[C@H]1O5	tube area decrease	5.1
COc1cc(CC#N)cc(OC)c1OC	tube area decrease	36.1
c1ccc2c(c1)OCC(C1=NCCN1)O2 (stereo not given)	tube area decrease	-4.8

* * *

Test system: Aerobactin synthetase IucA (Klebsiella pneumoniae hvKP1)
test_details: Biochemical IucA enzyme inhibition primary screen of the Spectrum library (AID 1346200);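 further: 100% = wells without compound and 0% = wells lacking enzyme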
condition_notes: malachite green pyrophosphate, A620, at 8 µM, stronger effect = lower value

compound	assay_target	measurement_units	activity remaining
CC1=CC(=O)c2c(O)cccc2C1=O	Aerobactin synthetase IucA (Klebsiella pneumoniae hvKP1)	%	112
CN[C@@H](C)[C@@H](O)c1ccccc1	Aerobactin synthetase IucA (Klebsiella pneumoniae hvKP1)	%	98.2
NC1=NCCN1CC(=O)O	Aerobactin synthetase IucA (Klebsiella pneumoniae hvKP1)	%	112
C=CCSC[C@@H](N)C(=O)O	Aerobactin synthetase IucA (Klebsiella pneumoniae hvKP1)	%	98.6
COc1cc2c(c(OC)c1OC)-c1ccc(O)c(=O)cc1[C@@H](NC(C)=O)CC2	Aerobactin synthetase IucA (Klebsiella pneumoniae hvKP1)	%	120
O=C(CCCCCCCCCCCCC1CCCC1)Nc1ccc(S(=O)(=O)c2ccc(NC(=O)CCCCCCCCCCCCC3CCCC3)cc2)cc1	Aerobactin synthetase IucA (Klebsiella pneumoniae hvKP1)	%	94.8
CC[C@H]1OC(=O)C[C@@H](O)[C@H](C)[C@@H](O[C@@H]2O[C@H](C)[C@@H](O[C@H]3C[C@@](C)(O)[C@@H](O)[C@H](C)O3)[C@H](N(C)C)[C@H]2O)[C@@H](CC=O)C[C@@H](C)C(=O)/C=C/C(C)=C/[C@@H]1CO[C@@H]1O[C@H](C)[C@@H](O)[C@@H](OC)[C@H]1OC	Aerobactin synthetase IucA (Klebsiella pneumoniae hvKP1)	%	112
C=C1C(C2(C)C=CC(=O)C(C)(C)C2CC(=O)OC)CC[C@@]2(C)[C@H](c3ccoc3)OC(=O)C3OC132 (some centres undefined)	Aerobactin synthetase IucA (Klebsiella pneumoniae hvKP1)	%	105
Cc1cc(O)c2c(c1)C(=O)c1cccc(O)c1C2=O	Aerobactin synthetase IucA (Klebsiella pneumoniae hvKP1)	%	107

* * *

test_details: liver-stage malaria parasite growth inhibition, primary screen, cell-based, HepG2, luciferase luminescence, HepG2 viability (AID 624349);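 further: 100% = mean of DMSO negative control wells on the same plate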
condition_notes: P. berghei liver stage in HepG2, luciferase luminescence, concentration not given here; stronger effect = lower value
readout_name: parasite load remaining (%)

compound	measurement_units	numeric_value
CC(C)=CCOc1c2occc2cc2ccc(=O)oc12	%	18.8
C=C(C)CN1CC[C@]23c4c5ccc(O)c4O[C@H]2c2[nH]c4ccccc4c2C[C@@]3(O)C1C5	%	2.83
CC1=C2CCC3C(CC[C@]4(C)C(=O)CCC34)[C@@]2(C)CCC1=O (some centres undefined)	%	48.4
CC[C@H]1C2CC3[C@@H]4N(C)c5ccccc5[C@]45C[C@@H](C2C5O)N3[C@@H]1O (some centres undefined)	%	88.5
CCC1C2CC3[C@@H]4N(C)c5ccccc5[C@]45CC(C2[C@H]5O)N3[C@@H]1O (some centres undefined)	%	65.3
C=CCN1CC[C@]23c4c5ccc(O)c4O[C@H]2/C(=N/N=C2\CC[C@@]4(O)[C@H]6Cc7ccc(O)c8c7[C@@]4(CCN6CC=C)[C@H]2O8)CC[C@@]3(O)[C@H]1C5	%	8.58
CN[C@@H]1C[C@@H](c2ccc(Cl)c(Cl)c2)c2ccccc21	%	4.35
CCOC(=O)c1cncn1[C@H](C)c1ccccc1	%	110
Cc1ncc2n1-c1ccc(Cl)cc1C(c1ccccc1F)=NC2	%	105
Oc1cc2c(cc1O)[C@H]1c3ccccc3CN[C@@H]1CC2	%	31.6
CO[C@H]1[C@H](O)[C@@H](O[C@H]2CC[C@]3(C=O)C4CC[C@]5(C)[C@@H](C6=CC(=O)OC6)CC[C@]5(O)C4CC[C@@H]3C2)O[C@@H](C)[C@@H]1O (some centres undefined)	%	56.4
C[N+]1=Cc2cc3c(cc2CC1)OCO3	%	30.1
NC(=O)OCCCc1ccccc1	%	136
COC(=O)C(c1ccccc1)C1CCCCN1 (centres undefined)	%	51.8

* * *

Here the recorded inhibition is given for each entry.
assay_target: L-lactate dehydrogenase (Plasmodium falciparum (isolate CDC / Honduras)) (UniProt Q27743)
Sequence (Q27743 whole entry, looked up): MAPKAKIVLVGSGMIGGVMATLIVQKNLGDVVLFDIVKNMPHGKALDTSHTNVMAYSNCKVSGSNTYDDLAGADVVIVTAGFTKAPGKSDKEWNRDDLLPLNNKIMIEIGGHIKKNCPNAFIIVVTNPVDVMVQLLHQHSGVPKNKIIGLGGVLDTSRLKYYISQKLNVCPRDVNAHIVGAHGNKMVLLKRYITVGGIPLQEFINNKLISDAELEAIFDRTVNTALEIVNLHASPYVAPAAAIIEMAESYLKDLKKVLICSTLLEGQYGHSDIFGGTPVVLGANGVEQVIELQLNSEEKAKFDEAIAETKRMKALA
test_details: PfLDH activity inhibition – cell lysate, 3D7 strain, counter-screen for P. falciparum growth inhibition project (AID 2304);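 further: 0% = vehicle and 100% = reference inhibitor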
condition_notes: P. falciparum 3D7 crude extract, LDH APAD/NBT absorbance; at 2 µM; stronger effect = higher value
readout_name: inhibition (%)

molecule	numeric_value
Cc1c(C)c2c(c(C)c1O)CC[C@@](C)(C(=O)NC1CCC(CN3CCC(c4c[nH]c5ccccc45)CC3)CC1)O2 (some centres undefined)	-2
Cc1cc(O)cc2c(C3CCN(CC4CCN(C(=O)/C=C/c5ccc(Cl)c(Cl)c5)CC4)CC3)c[nH]c12	3
Cc1[nH]c2ccc(O)cc2c1C1CCN(CC2CCN(C(=O)/C=C/c3ccc(Cl)c(Cl)c3)CC2)CC1	-13
COc1cccc(C2(C)CCN(CCCCNC(=O)c3ccc(NC(=O)c4ccc(Cl)cc4)cc3)CC2)c1	8

Taken from PubChem BioAssay.
